# system_under_test: cAMP and cAMP-inhibited cGMP 3',5'-cyclic phosphodiesterase 10A (Homo sapiens, UniProt Q9Y233)
measurement_name: pIC50
Scale: pIC50 equals -log10([C]), with [C] in mol/L.

Req: Suppose we examine the compound O=C(NCc1cn2ccsc2n1)c1nc(C2CC2)cnc1Nc1cncnc1 [Roche-Dataset for PDE10A, Compound 838] ; what pIC50 value has been reported?
Resp: 7.42

Req: Suppose we examine the compound Cc1ncc(C)n2nc(CCc3nc(C4CCCC4)nn3C)nc12 [Roche-Dataset for PDE10A, Compound 956] ; what pIC50 value has been reported?
Resp: 6.84

Req: Suppose we examine the compound COC1CN(C(=O)c2cnn(C)c2C(=O)Nc2ccn3nc(N4CCOCC4)nc3c2)C1 [Roche-Dataset for PDE10A, Compound 348] ; what pIC50 value has been reported?
Resp: 6.89

Req: Suppose we examine the compound O=C(Nc1cc(-c2ccccn2)nn1CCO)c1nc(C2CC2)ccc1Nc1cncnc1 [US8470820, 10] ; what pIC50 value has been reported?
Resp: 8.65

Req: Suppose we examine the compound O=C(Nc1ccn(CC2CC2)n1)c1nc(C2CC2)ccc1Nc1cncnc1 [Roche-Dataset for PDE10A, Compound 593] ; what pIC50 value has been reported?
Resp: 7.64

Req: Suppose we examine the compound CNC(=O)c1cnn(C)c1C(=O)Nc1ccn2cc(-c3cccc(F)c3)nc2n1 [Roche-Dataset for PDE10A, Compound 656] ; what pIC50 value has been reported?
Resp: 7.21

Req: Suppose we examine the compound O=C(Nc1ccn2nc(-c3ccccc3)nc2c1)c1conc1C(=O)NC1CC1 [Roche-Dataset for PDE10A, Compound 437] ; what pIC50 value has been reported?
Resp: 6.82

###

Data export: IC50 values recorded with UniProt Q9Y233.
Hey, just the number and the unit after it is fine.

Req: Suppose we examine the compound CCCCc1cc(NC(=O)c2c(C(=O)N3CCC3)cnn2C)n(C2CCCC2)n1 [Roche-Dataset for PDE10A, Compound 814] ; what IC50 value has been reported?
Resp: 619 nM

Req: Suppose we examine the compound Cc1cccc2c(=O)[nH]c(CCc3nc(-c4ccccc4)cn3C)nc12 [Roche-Dataset for PDE10A, Compound 74] ; what IC50 value has been reported?
Resp: 15 nM

Req: Suppose we examine the compound Cn1ncc(C(=O)N2CCC2)c1C(=O)Nc1ccn(CC2CC2)n1 [Roche-Dataset for PDE10A, Compound 1075] ; what IC50 value has been reported?
Resp: 329 nM

Req: Suppose we examine the compound O=C(Nc1ccnc(Cl)c1)c1cn(-c2ccc3ccccc3n2)cn1 [Roche-Dataset for PDE10A, Compound 414] ; what IC50 value has been reported?
Resp: 302 nM

###

# system_under_test: cAMP and cAMP-inhibited cGMP 3',5'-cyclic phosphodiesterase 10A (Homo sapiens, UniProt Q9Y233)
Kindly state pIC50 for each of the entries shown.
Scale: pIC50 equals -log10([C]), with [C] in mol/L.

Req: Suppose we examine the compound Cc1cncc(-c2nc3cc(NC(=O)c4c(C(=O)N5CCC5)cnn4C)ccn3n2)c1 [Roche-Dataset for PDE10A, Compound 219] ; what pIC50 value has been reported?
Resp: 7.96

Req: Suppose we examine the compound Cc1cc(NC(=O)c2c(C(=O)N3CCC3)cnn2C)cc(Br)n1 [Roche-Dataset for PDE10A, Compound 1139] ; what pIC50 value has been reported?
Resp: 5.33

Req: Suppose we examine the compound Cc1cc(NC(=O)c2ccc3cc(-c4ccccc4)nn3c2)cc(C)n1 [Roche-Dataset for PDE10A, Compound 286] ; what pIC50 value has been reported?
Resp: 7.12

Req: Suppose we examine the compound Cc1cccc(-c2cn3c(n2)C[C@H](NC(=O)c2c(C(=O)N(C)C)cnn2C)CC3)c1 [Roche-Dataset for PDE10A, Compound 241] ; what pIC50 value has been reported?
Resp: 7.47

Req: Suppose we examine the compound Cc1c(Cl)cc(OC(C)C)c2nc(CCc3nc(N4CCCC4)nn3C)nn12 [Roche-Dataset for PDE10A, Compound 223] ; what pIC50 value has been reported?
Resp: 9.16

Req: Suppose we examine the compound Cn1ncc(C(=O)N2CCC2)c1C(=O)Nc1ccn(-c2ccc(Cl)cc2Cl)n1 [Roche-Dataset for PDE10A, Compound 1034] ; what pIC50 value has been reported?
Resp: 5.98

Req: Suppose we examine the compound O=C(Nc1ccn([C@]23C[C@H]4C[C@H](C[C@H](C4)C2)C3)n1)c1nc(C2CC2)ccc1Nc1cncnc1 [Roche-Dataset for PDE10A, Compound 537] ; what pIC50 value has been reported?
Resp: 7.92

Req: Suppose we examine the compound Cn1ncc(C(=O)N2CCC2)c1C(=O)Nc1cc(-c2ccccc2Cl)nn1C1CCCC1 [Roche-Dataset for PDE10A, Compound 438] ; what pIC50 value has been reported?
Resp: 6.06

Req: Suppose we examine the compound Cn1nnc(C(=O)N2CCC2)c1C(=O)Nc1ccn2nc(-c3ccccc3)nc2c1 [Roche-Dataset for PDE10A, Compound 250] ; what pIC50 value has been reported?
Resp: 6.74

Req: Suppose we examine the compound COCCNC(=O)c1cc2[nH]c(-c3ccccc3)nc2cc1NC(=O)c1ccnnc1 [Roche-Dataset for PDE10A, Compound 306] ; what pIC50 value has been reported?
Resp: 7.46

Req: Suppose we examine the compound COC(=O)c1cnn(C)c1C(=O)Nc1ccn2nc(-c3ccccc3)nc2c1 [Roche-Dataset for PDE10A, Compound 378] ; what pIC50 value has been reported?
Resp: 7.82

Req: Suppose we examine the compound CN(c1nc2cc(NC(=O)c3c(C(=O)O)cnn3C)ccn2n1)C1CC1 [Roche-Dataset for PDE10A, Compound 649] ; what pIC50 value has been reported?
Resp: 7.38

Req: Suppose we examine the compound COC[C@H]1CCCN1c1nc(CCc2nc3c(C)ncc(C)n3n2)n(Cc2ccc(OC)cc2)n1 [Roche-Dataset for PDE10A, Compound 38] ; what pIC50 value has been reported?
Resp: 7.82

Req: Suppose we examine the compound O=C(Nc1ccnnc1)c1nc(C2CC2)cnc1Nc1cncnc1 [Roche-Dataset for PDE10A, Compound 1083] ; what pIC50 value has been reported?
Resp: 6.54

Req: Suppose we examine the compound CCOc1cc(Cl)c(C)n2nc(CCc3nc(N4CCCC4)nn3C)nc12 [Roche-Dataset for PDE10A, Compound 266] ; what pIC50 value has been reported?
Resp: 9.22

Req: Suppose we examine the compound CN(CCO)c1nc(OCc2nc(-c3ccccc3)cn2C)nc2ccc(Cl)cc12 [Roche-Dataset for PDE10A, Compound 19] ; what pIC50 value has been reported?
Resp: 8.51

Req: Suppose we examine the compound CS(=O)(=O)Nc1cccc(NC(=O)c2nc(C3CC3)cnc2Nc2cncnc2)c1 [Roche-Dataset for PDE10A, Compound 900] ; what pIC50 value has been reported?
Resp: 7.82

Req: Suppose we examine the compound COCCn1ccc(NC(=O)c2nc(C3CC3)ccc2Nc2cncnc2)n1 [Roche-Dataset for PDE10A, Compound 640] ; what pIC50 value has been reported?
Resp: 7.85

Req: Suppose we examine the compound Cn1ncc(C(=O)N2CCC2)c1C(=O)Nc1cc2ccccn2n1 [Roche-Dataset for PDE10A, Compound 1147] ; what pIC50 value has been reported?
Resp: 6.16

Req: Suppose we examine the compound COC[C@H]1CCCN1c1nc(CCc2nc3c(C)ncc(C)n3n2)n(C)n1 [Roche-Dataset for PDE10A, Compound 249] ; what pIC50 value has been reported?
Resp: 7.92

Req: Suppose we examine the compound O=C(Nc1ccn(C2CC2)n1)c1nc(C2CC2)ccc1Nc1cncnc1 [Roche-Dataset for PDE10A, Compound 715] ; what pIC50 value has been reported?
Resp: 7.59

Req: Suppose we examine the compound `CCc1nc2ccc(OCc3cccc(N4CCCC4)n3)nn2c1C` ; what pIC50 value has been reported?
Resp: 6.26

Req: Suppose we examine the compound Cn1ncc(S(C)(=O)=O)c1C(=O)Nc1ccc2cc(-c3ccccc3)nn2c1 [Roche-Dataset for PDE10A, Compound 410] ; what pIC50 value has been reported?
Resp: 6.75

Req: Suppose we examine the compound COCCN(C)C(=O)c1cnn(C)c1C(=O)Nc1ccn2cc(-c3ccnc(F)c3)nc2n1 [Roche-Dataset for PDE10A, Compound 147] ; what pIC50 value has been reported?
Resp: 6.11

Req: Suppose we examine the compound Cn1cc(-c2ccccc2)nc1CCNC(=O)c1cccn2c(C(F)(F)F)nnc12 [Roche-Dataset for PDE10A, Compound 298] ; what pIC50 value has been reported?
Resp: 7.06

Req: Suppose we examine the compound CC(C)Cn1ccc(NC(=O)c2c(C(=O)N3CCC3)cnn2C)n1 [Roche-Dataset for PDE10A, Compound 1055] ; what pIC50 value has been reported?
Resp: 6.59

Req: Suppose we examine the compound Cc1ncc(C)n2nc(/C=C/c3nc(-c4cccn4C)nn3C)nc12 [Roche-Dataset for PDE10A, Compound 440] ; what pIC50 value has been reported?
Resp: 7.92
